target: T1, IL-18 receptor (IL-18Rα/IL-18Rβ) overexpressed on HEK-Blue IL-18 cells (Homo sapiens (Human), UniProt Q13478 19-541; O95256 20-599)
T1 sequence 1: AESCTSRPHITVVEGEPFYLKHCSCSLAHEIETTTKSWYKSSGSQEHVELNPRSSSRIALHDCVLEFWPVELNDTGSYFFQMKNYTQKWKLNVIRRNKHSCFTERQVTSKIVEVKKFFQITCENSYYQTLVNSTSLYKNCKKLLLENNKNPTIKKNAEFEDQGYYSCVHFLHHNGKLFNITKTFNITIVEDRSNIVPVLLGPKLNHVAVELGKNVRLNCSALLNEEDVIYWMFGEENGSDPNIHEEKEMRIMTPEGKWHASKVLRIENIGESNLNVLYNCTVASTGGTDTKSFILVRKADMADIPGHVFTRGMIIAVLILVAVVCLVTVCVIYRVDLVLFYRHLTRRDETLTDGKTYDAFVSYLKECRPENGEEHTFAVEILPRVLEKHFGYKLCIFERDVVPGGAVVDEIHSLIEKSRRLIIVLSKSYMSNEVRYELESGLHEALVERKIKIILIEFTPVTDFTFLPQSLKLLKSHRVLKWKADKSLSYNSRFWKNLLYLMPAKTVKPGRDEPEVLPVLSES
T1 sequence 2: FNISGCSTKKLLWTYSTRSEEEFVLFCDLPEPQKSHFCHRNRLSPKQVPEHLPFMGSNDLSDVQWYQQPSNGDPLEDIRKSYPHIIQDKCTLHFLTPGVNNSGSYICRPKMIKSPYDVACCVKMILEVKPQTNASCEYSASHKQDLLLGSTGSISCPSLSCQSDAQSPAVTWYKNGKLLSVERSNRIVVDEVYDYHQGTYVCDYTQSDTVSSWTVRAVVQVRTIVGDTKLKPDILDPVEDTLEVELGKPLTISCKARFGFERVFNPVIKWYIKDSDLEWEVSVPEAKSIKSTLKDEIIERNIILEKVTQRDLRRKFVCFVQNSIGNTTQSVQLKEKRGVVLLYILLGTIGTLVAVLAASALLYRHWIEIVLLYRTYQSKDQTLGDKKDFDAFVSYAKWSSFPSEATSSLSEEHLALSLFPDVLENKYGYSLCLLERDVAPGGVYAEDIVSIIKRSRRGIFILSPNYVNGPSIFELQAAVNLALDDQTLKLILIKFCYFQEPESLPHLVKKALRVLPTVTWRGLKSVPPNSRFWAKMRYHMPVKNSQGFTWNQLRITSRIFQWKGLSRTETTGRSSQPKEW
procedure-summary: cell-based or functional assay
A collection of binders and their measured HEK-Blue IL-18: Fold over Background
Just the number please, in fold, no unit attached.

DGL251 (bispecific antibody, V domains shown) V domain 1: QVQLVESGGGLVQAGGSLRLSCAASGRTFSKHAMGWFRQAPGKEREFVAAIDWSGGSTYYADSVKGRFTISRDNAKNTVYLQMDSLKPEDTAVYYCAADSYTDYAQLWLPELESEYDYWGQGTQVTVSS V domain 2: EVQLVESGGGLVQTGGSLRLSCVASETITDTFRMGWYRQAPGQQRELVAAITHTSETTYGDSVTGRFTISGDTAKNMVHLQMNSLKPEDTGVYYCNIRAWRRPDYWGQGTQVTVSS
1.3
DGL298 (bispecific antibody, V domains shown) V domain 1: QVQLVESGGGLVQAGGSLRLSCAASGRTFSSYDMGWFRQAPGKEREFVAALRWSGGSTSYADSVKGRFTISRDNAKNTVYLHMNSLKPEDTAVYYCAATLETDSGTYWADYWGQGTQVTVSS V domain 2: QVQLVESGGGLVLPGESLRLSCVVSGTIDNINSMGWYRQAPGKQRELVAYITKLGSANYADSVEGRFTISRDNAKKTVHLQMNSLKPEDTAVYYCHANERGRITWAQGTQVTVSS
4.2

Measured HEK-Blue IL-18: Fold over Background, DGL322 (bispecific antibody, V domains shown) V domain 1: QVQLVESGGGLVQAGGSLRLSCAASGRTFSSYTMGWFRQAPGKEREFVAAISWSAGRTYYADSVKGRFTISRDNAKNTVYLQMNSLKPEDTAVYFCAAEEAPDWAPIDCSGYGCLSLYDYWGQGTQVTVSS V domain 2: QLQLVESGGGLVQAGGSLRLSCAASRSITFSHNVMGWYRQAPGKQRELVASIGSGGSTNYVDSVKGRATISRDNAKKTVYLQMNSLKPEDTAVYYCGVVVGVYRGSLGQGTQVTVSS : 3.2

get_value(item= DGL310 (bispecific antibody, V domains shown) V domain 1: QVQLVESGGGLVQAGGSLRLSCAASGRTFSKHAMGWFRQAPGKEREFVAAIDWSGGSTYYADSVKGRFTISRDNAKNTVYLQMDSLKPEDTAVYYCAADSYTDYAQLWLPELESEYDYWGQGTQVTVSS V domain 2: EVQLVESGGGVAQAGGSLRLSCAASITSFSLNTMGYYRQLPGKQRELVAVESSSGITNYADSVKGRFTISRDGAKNTVFLQMNSLTPEDTAVYYCGGKLFGRDFWGQGTQVTVSS , readout=HEK-Blue IL-18: Fold over Background) returns 11.8

Notebook: DGL296 (bispecific antibody, V domains shown) V domain 1: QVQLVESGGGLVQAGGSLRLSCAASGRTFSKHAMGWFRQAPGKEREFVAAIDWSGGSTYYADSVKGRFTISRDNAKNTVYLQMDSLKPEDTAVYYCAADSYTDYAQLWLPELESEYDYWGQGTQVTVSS V domain 2: QVQLVESGGDLVLPGGSLKLSCEASGSISSRNSMAWYRRAPGKQRELVAAISSISSGGRTDYADFVKGRFTIFRDTAKNMVYLQMNNLKPEDTAVYDCDDPIRVASLAYDDWGQGTQVTVSS , HEK-Blue IL-18: Fold over Background read as 2.9
